- System: Escherichia coli TOP10;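 further: peptides expressed intracellularly from a pBAD plasmid library in pooled LB shake-flask culture, induced with 0.3% L-arabinose, DNA abundance read by NGS, three biological replicates, DESeq2 with apeglm shrinkage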
- experimental details: shrunken log2 fold change of peptide-encoding DNA abundance (4.5 h post-induction vs induction); higher = less antimicrobial activity (less host growth inhibition)
- setup conditions: time post-induction: 4.5 h; library: site-saturation at positions 5, 18, 19, 20
Classification field: T = shrunken log2 fold change at or over -0.01; F = shrunken log2 fold change under -0.01.

## Input Please indicate if the recorded shrunken log2 fold change for `RRIRSRPPRLPRPRPRPTAVPRP` meets or exceeds -0.01.
## Output T

## Input Please indicate if the recorded shrunken log2 fold change for `RRIRWRPPRLPRPRPRPCRQPRP` meets or exceeds -0.01.
## Output F

## Input Please indicate if the recorded shrunken log2 fold change for `RRIRHRPPRLPRPRPRPETEPRP` meets or exceeds -0.01.
## Output T

## Input Please indicate if the recorded shrunken log2 fold change for `RRIRHRPPRLPRPRPRPDYKPRP` meets or exceeds -0.01.
## Output T

## Input Please indicate if the recorded shrunken log2 fold change for `RRIRVRPPRLPRPRPRPIVGPRP` meets or exceeds -0.01.
## Output T

## Input Please indicate if the recorded shrunken log2 fold change for `RRIRNRPPRLPRPRPRPMSHPRP` meets or exceeds -0.01.
## Output F

## Input Please indicate if the recorded shrunken log2 fold change for `RRIRIRPPRLPRPRPRPHPTPRP` meets or exceeds -0.01.
## Output F

## Input Please indicate if the recorded shrunken log2 fold change for `RRIRRRPPRLPRPRPRPMICPRP` meets or exceeds -0.01.
## Output F

## Input Please indicate if the recorded shrunken log2 fold change for `RRIRRRPPRLPRPRPRPCIWPRP` meets or exceeds -0.01.
## Output T

## Input Please indicate if the recorded shrunken log2 fold change for `RRIRQRPPRLPRPRPRPLKEPRP` meets or exceeds -0.01.
## Output F

## Input Please indicate if the recorded shrunken log2 fold change for `RRIRRRPPRLPRPRPRPGDTPRP` meets or exceeds -0.01.
## Output T

## Input Please indicate if the recorded shrunken log2 fold change for `RRIRWRPPRLPRPRPRPHGTPRP` meets or exceeds -0.01.
## Output F

## Input Please indicate if the recorded shrunken log2 fold change for `RRIRHRPPRLPRPRPRPAKHPRP` meets or exceeds -0.01.
## Output F

## Input Please indicate if the recorded shrunken log2 fold change for `RRIRLRPPRLPRPRPRPGGIPRP` meets or exceeds -0.01.
## Output F

## Input Please indicate if the recorded shrunken log2 fold change for `RRIRQRPPRLPRPRPRPVGDPRP` meets or exceeds -0.01.
## Output T

## Input Please indicate if the recorded shrunken log2 fold change for `RRIRCRPPRLPRPRPRPCLAPRP` meets or exceeds -0.01.
## Output F

## Input Please indicate if the recorded shrunken log2 fold change for `RRIRHRPPRLPRPRPRPLSDPRP` meets or exceeds -0.01.
## Output F

## Input Please indicate if the recorded shrunken log2 fold change for `RRIRARPPRLPRPRPRPSWQPRP` meets or exceeds -0.01.
## Output T

## Input Please indicate if the recorded shrunken log2 fold change for `RRIRRRPPRLPRPRPRPNKNPRP` meets or exceeds -0.01.
## Output T

## Input Please indicate if the recorded shrunken log2 fold change for `RRIRMRPPRLPRPRPRPTVKPRP` meets or exceeds -0.01.
## Output F

## Input Please indicate if the recorded shrunken log2 fold change for `RRIRHRPPRLPRPRPRPAECPRP` meets or exceeds -0.01.
## Output F

## Input Please indicate if the recorded shrunken log2 fold change for `RRIRERPPRLPRPRPRPDLKPRP` meets or exceeds -0.01.
## Output F

## Input Please indicate if the recorded shrunken log2 fold change for `RRIRSRPPRLPRPRPRPVYPPRP` meets or exceeds -0.01.
## Output F

## Input Please indicate if the recorded shrunken log2 fold change for `RRIRLRPPRLPRPRPRPCMSPRP` meets or exceeds -0.01.
## Output T

## Input Please indicate if the recorded shrunken log2 fold change for `RRIRRRPPRLPRPRPRPHVSPRP` meets or exceeds -0.01.
## Output F

## Input Please indicate if the recorded shrunken log2 fold change for `RRIRERPPRLPRPRPRPDNEPRP` meets or exceeds -0.01.
## Output F

## Input Please indicate if the recorded shrunken log2 fold change for `RRIRFRPPRLPRPRPRPPVWPRP` meets or exceeds -0.01.
## Output T

## Input Please indicate if the recorded shrunken log2 fold change for `RRIRCRPPRLPRPRPRPMVHPRP` meets or exceeds -0.01.
## Output F

## Input Please indicate if the recorded shrunken log2 fold change for `RRIRARPPRLPRPRPRPQNVPRP` meets or exceeds -0.01.
## Output F

## Input Please indicate if the recorded shrunken log2 fold change for `RRIRSRPPRLPRPRPRPIISPRP` meets or exceeds -0.01.
## Output F

## Input Please indicate if the recorded shrunken log2 fold change for `RRIRDRPPRLPRPRPRPYGYPRP` meets or exceeds -0.01.
## Output F

## Input Please indicate if the recorded shrunken log2 fold change for `RRIRLRPPRLPRPRPRPSCAPRP` meets or exceeds -0.01.
## Output T
